Taken from ChEMBL document CHEMBL1201862.

GI50 reference
# Test system: OVCAR-3
# MEASUREMENT_PROTOCOL: NCI tumour cell line growth inhibition, 48 h
Active and inactive are the calls of the source. No stated cut-off is given here; in the data, active = GI50 up to about 1.1 µM and inactive = higher.

{"columns": ["COMPOUND", "GI50"],
 "data": [
  ["CC(/C=C/C=C/C=C/C=C/C=C/C(=O)C1=C(O)C(CCC(=O)O)N(C)C1=O)=C\\C(C)C(OC1CC(O)C(O)C(C)O1)C(C)C (stereo not given)", "1.98 µM (inactive)"],
  ["CCOC(=O)c1cnc2c(ccc3ncccc32)c1OCC", "> 100 µM (inactive)"],
  ["Nc1nc(O)c(N)c(NCCOCP(=O)(O)O)n1", "> 100 µM (inactive)"],
  ["N#Cc1c(Cl)nc2ccccc2c1N=[N+]=[N-]", "1.78 µM (inactive)"],
  ["CCC(C#N)NC(=O)NC(C#N)CC (stereo not given)", "> 100 µM (inactive)"]
]}
